Data provenance is PubChem BioAssay.

Biological target: Streptavidin (Streptomyces avidinii) (UniProt P22629)
Sequence (P22629 whole entry, looked up): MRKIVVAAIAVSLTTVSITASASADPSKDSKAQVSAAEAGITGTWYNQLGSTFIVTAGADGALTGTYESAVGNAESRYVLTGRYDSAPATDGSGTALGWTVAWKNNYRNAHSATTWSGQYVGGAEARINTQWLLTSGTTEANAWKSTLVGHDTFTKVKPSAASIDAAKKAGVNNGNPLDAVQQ
Assay: streptavidin binders on small-molecule microarray, primary screen, artefact control for SMM compound annotation, biophysical, 635/667 nm fluorescence (AID 1147);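 also: signal reflects streptavidin binding to arrayed compounds as a control protein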
Details: streptavidin binding, higher = more signal
Consider the following compounds and their measured composite z-score readings.
// keep it numeric: no unit symbol after the value

Some solved cases for reference:
{"compound": "O=C(c1ccccc1)N1Cc2ccccc2C[C@@]2(N=C(c3ccc(OCCCO)cc3)O[C@H]2c2ccccc2)C1=O", "composite z-score": 0.491}
{"compound": "Cc1ccc(S[C@]2(C(=O)NCCN3CCOCC3)CC(=O)N(C(C)C)[C@@H]2c2ccc(CO)cc2I)cc1", "composite z-score": -0.676}
{"compound": "CCN1C(=O)C2CC(=O)C3C(CN(S(=O)(=O)c4ccc(C)cc4)C3c3ccc(C)cc3)C2C1=O (centres undefined)", "composite z-score": 0.851}
{"compound": "COC(=O)[C@@]1(Cc2ccc(F)cc2)[C@H]2c3cc(C(=O)N(C)C)n(Cc4ccsc4Br)c3C[C@H]2CN1C(=O)c1ccccc1", "composite z-score": 1.66}
{"compound": "O=C(NC1CC1)[C@@H]1c2ccccc2C(=O)N(C2CCCCC2)[C@H]1c1ccc(CO)cc1", "composite z-score": -0.104}
{"compound": "O=C1c2ccccc2[C@](Cc2ccccc2I)(C(=O)NCCN2CCOCC2)[C@H](c2ccc(CO)cc2)N1Cc1ccccc1C(F)(F)F", "composite z-score": 0.515}
{"compound": "CC(C)C[C@H]1NC(=O)CNC(=O)[C@@]23C(=O)N[C@@H](Cc4ccccc4)C2[C@H](C)[C@@]2(C)O[C@H]2C3/C=C/C/C=C\\CNC1=O (some centres undefined)", "composite z-score": -0.185}
{"compound": "C=CCNC(=O)[C@H]1[C@@H]2C(=O)O[C@@H](c3ccccc3)[C@@H](c3ccccc3)N2[C@@H](c2ccc(O)cc2)[C@]12C(=O)Nc1ccc(C#CCC(C(=O)OC)C(=O)OC)cc12", "composite z-score": -0.419}

Supply measured composite z-score of O=C(CS)NCCCCCCNC(=O)[C@H]1C[C@H]2C(=O)NCC(=O)N2[C@H]1c1cccc(OCCO)c1 in your reply.
-0.127
